- measured-target: human Nav1.7 channels (Homo sapiens, UniProt Q15858)
- Construct: expressed in transfected cells; host or cells: CHO cells
- Sequence (Q15858 whole entry): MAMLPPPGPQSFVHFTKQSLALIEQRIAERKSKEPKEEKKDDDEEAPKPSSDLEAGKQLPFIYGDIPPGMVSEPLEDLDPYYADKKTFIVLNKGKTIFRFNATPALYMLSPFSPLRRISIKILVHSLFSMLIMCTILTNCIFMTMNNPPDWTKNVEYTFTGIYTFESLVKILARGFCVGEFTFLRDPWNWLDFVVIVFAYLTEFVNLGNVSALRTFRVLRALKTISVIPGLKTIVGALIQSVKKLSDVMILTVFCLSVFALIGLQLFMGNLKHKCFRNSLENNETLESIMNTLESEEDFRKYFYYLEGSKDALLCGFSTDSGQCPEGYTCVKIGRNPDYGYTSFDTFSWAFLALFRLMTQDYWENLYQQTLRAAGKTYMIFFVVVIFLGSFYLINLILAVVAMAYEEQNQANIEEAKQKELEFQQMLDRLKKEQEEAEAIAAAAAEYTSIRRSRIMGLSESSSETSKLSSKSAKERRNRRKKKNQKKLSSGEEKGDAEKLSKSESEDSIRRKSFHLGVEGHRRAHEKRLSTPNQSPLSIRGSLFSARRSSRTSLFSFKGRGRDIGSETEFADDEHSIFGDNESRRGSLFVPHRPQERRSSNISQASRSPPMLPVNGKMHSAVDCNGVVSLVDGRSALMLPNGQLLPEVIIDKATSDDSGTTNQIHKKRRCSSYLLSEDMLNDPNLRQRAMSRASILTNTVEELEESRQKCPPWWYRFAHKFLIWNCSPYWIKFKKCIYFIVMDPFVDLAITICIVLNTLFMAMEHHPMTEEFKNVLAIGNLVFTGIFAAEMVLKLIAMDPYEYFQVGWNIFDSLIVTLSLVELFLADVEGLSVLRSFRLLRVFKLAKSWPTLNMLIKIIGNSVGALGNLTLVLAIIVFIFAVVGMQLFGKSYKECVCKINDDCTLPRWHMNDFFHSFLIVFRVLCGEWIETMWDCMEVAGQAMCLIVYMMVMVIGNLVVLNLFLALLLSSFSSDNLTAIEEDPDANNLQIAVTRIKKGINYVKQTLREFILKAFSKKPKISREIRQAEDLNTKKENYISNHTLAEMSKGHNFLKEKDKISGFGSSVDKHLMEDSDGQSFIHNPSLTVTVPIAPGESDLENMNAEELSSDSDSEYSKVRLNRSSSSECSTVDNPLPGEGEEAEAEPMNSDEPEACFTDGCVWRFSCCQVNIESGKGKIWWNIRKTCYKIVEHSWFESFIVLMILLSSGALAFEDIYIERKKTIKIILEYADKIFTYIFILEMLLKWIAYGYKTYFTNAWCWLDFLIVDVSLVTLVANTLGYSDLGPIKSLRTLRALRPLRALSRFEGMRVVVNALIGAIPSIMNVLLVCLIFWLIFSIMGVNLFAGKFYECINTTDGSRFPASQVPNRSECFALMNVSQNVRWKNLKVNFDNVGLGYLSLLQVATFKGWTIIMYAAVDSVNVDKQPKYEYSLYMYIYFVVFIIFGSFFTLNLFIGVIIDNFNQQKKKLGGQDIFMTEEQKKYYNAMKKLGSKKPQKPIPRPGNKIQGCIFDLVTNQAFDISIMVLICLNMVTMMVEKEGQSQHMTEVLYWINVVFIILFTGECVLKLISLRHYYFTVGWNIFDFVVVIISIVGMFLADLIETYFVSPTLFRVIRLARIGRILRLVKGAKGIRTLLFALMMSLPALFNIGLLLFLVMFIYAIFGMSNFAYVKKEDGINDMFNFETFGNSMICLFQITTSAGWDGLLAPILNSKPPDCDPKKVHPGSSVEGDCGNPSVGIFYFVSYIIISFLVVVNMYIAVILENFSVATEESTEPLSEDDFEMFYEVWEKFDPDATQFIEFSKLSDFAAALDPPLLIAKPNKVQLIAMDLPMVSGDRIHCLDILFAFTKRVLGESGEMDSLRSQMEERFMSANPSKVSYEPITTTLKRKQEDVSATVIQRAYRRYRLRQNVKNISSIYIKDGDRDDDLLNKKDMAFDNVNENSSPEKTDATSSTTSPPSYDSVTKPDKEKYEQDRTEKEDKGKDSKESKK
- method-summary: FRET assay, human Nav1.7 channels
- Type: cell-based
- assay-context: bound holds for Nav1.7 and/or Nav1.3, not stated which, read-out: IC50 against Nav1.7 and/or Nav1.3
endpoint: IC50

INSERT INTO measurements (smiles_input, test_value) VALUES
  ('Cc1cc(Cn2cc3c(NC(=O)C(C)(C)O)nccc3n2)cnc1OCC(F)(F)F', '< 1000 nM');

* * *

- measured-target: human Nav1.7 channels (Homo sapiens)
- Construct: expressed in transfected cells; host or cells: CHO cells
- method-summary: FRET assay, human Nav1.7 channels
- Assay type: cell-based
- assay-context: read-out: activity against Nav1.7 (IC50)
endpoint: IC50 (nM)

INSERT INTO assay_data (smiles_input, endpoint, test_value) VALUES
  ('Cc1cc(Cn2cc3c(NC(=O)C(C)(C)O)nccc3n2)cnc1OCC(F)(F)F', 'IC50', 380);

* * *

- measured-target: human Nav1.5 channels (Homo sapiens)
- method-summary: FRET assay, human Nav1.5 channels
- assay-context: read-out: activity against Nav1.5 (IC50)
- Protocol: The inhibitory activities of compounds against voltage gated sodium channels are determined by methodology well known in the art. The ability of the pyrazolopyridine derivatives of the formula (I) to inhibit the Nav1.3, Nav1.7 and Nav1.5 channels is measured by Fluorescence Resonance Energy Transfer (FRET) assay and electrophysiology assay described below. […] The data are analyzed and reported as normalized ratios of intensities measured at […]. […]
endpoint: IC50

INSERT INTO results (compound, measured_target, endpoint, test_value) VALUES
  ('Cc1cc(Cn2cc3c(NC(=O)C(C)(C)O)nccc3n2)cnc1OCC(F)(F)F [Example 2]', 'human Nav1.5 channels (Homo sapiens)', 'IC50', '> 30 µM');

* * *

- measured-target: human Nav1.3 (hSCN3A) (Homo sapiens)
- Sequence (Q9NY46 whole entry): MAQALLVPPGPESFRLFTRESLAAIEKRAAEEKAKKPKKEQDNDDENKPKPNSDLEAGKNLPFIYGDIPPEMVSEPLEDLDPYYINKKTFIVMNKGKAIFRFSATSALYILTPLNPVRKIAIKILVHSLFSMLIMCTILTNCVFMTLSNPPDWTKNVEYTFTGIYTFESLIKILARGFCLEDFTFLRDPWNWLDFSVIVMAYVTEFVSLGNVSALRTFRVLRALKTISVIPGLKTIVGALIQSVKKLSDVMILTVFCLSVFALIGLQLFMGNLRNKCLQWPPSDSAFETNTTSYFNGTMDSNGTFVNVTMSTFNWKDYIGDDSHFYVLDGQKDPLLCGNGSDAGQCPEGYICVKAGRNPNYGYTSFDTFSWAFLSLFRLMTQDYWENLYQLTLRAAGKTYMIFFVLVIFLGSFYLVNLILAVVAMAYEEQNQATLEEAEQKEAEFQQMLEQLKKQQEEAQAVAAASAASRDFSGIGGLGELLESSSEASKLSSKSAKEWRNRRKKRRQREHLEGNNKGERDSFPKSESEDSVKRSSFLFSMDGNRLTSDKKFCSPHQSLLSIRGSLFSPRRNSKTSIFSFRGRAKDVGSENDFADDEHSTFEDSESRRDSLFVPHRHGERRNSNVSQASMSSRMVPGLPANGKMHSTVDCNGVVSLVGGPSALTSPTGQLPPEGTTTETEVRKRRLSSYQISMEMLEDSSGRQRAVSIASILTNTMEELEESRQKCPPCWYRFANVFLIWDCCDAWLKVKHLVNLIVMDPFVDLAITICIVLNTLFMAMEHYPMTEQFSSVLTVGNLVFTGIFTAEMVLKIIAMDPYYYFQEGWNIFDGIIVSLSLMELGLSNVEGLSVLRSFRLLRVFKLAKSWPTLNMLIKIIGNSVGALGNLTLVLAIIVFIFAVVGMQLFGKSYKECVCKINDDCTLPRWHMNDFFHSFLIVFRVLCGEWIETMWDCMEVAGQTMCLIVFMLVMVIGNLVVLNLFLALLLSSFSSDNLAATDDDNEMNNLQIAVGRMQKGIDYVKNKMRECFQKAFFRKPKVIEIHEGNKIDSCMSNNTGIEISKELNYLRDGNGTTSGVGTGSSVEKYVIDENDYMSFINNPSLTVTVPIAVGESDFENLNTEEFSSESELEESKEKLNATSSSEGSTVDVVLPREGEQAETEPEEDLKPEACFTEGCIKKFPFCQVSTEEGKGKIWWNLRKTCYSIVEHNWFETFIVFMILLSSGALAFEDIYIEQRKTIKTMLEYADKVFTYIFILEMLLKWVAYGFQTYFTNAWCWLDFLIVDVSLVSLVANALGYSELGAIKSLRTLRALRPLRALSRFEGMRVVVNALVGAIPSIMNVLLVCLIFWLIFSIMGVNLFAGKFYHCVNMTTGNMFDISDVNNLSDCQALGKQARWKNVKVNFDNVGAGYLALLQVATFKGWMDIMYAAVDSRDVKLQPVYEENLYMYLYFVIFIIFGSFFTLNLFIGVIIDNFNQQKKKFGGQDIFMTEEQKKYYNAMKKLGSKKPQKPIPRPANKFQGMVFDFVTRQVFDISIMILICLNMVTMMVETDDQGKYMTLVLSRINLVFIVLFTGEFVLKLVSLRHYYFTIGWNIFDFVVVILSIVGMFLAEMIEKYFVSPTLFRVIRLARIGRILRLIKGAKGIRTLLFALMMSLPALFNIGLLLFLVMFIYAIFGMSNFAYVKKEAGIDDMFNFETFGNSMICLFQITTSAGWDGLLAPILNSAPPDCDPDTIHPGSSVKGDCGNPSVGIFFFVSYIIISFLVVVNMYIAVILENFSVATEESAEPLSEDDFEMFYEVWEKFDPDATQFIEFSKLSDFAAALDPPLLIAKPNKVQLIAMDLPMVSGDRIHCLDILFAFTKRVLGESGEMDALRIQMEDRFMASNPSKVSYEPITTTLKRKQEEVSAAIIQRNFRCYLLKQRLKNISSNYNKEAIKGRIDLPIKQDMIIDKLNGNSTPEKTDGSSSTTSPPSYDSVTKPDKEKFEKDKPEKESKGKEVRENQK
- method-summary: Electrophysiology assay (whole cell patch clamp), human Nav1.3
- assay-context: dissociation constant for the inactivated state, HEK293 cells, read-out: activity (Ki) against Nav1.3
endpoint: Ki (nM)

INSERT INTO assay_data (compound, readout_units, test_value) VALUES
  ('Cc1cc(Cn2cc3c(NC(=O)C(C)(C)O)nccc3n2)cnc1OCC(F)(F)F [Example 2]', 'nM', 570);

This collection of values is drawn from patent US9944634B2.
